Test system: ANKA strain of P. berghei
Method: Single dose STI in vivo screen in infected mice
Set-up: species or system Plasmodium berghei
Test Parameters: single 10 mg/kg po in SSV; untreated 6-7 days
Method: In the single dose STI in vivo screen, Moro SPF or NMRI mice infected with the ANKA strain of P. berghei (groups of three mice) were treated on day one post-infection with trioxolanes dissolved or suspended in 3% ethanol and 7% Tween 80. […] Antimalarial activity was measured by percent reduction in parasitemia on day three post-infection and survival times compared to an untreated control group. […]
The compounds listed here are annotated with their Survival (days) 10 mg/kg SSV po.
Respond numerically; units are days and should not be typed.

I would be grateful if you could share the reported Survival (days) 10 mg/kg SSV po for NCCOc1ccc([C@H]2CC[C@]3(CC2)OO[C@]2(O3)C3CC4CC(C3)CC2C4)cc1 .
15.6

For O=C(C[C@H]1CC[C@]2(CC1)OO[C@]1(O2)C2CC3CC(C2)CC1C3)N1CCS(=O)(=O)CC1 then?
6.8

For O=[N+]([O-])c1cc(C2(c3ccc(Cl)c([N+](=O)[O-])c3)OOC3(O2)C2CC4CC(C2)CC3C4)ccc1Cl (centres unmarked) then?
5.7
